# Study System: Cytochrome P450 2C19 (Homo sapiens)
# Test Description: Cytochrome panel assay with activity outcomes
# Condition: recombinant CYP, pro-luciferin dealkylation, luminescence, p450-cyp2c19; series mostly up to 57.1 µM
Among all 16,000 compounds or so, about 5,800 (36%) were called active. About 23% were inconclusive and are not listed. The call rests on the fitted dose curve; in most records, active means well fitted curve in the direction sought with a large enough effect; inconclusive means small, poorly fitted or top-dose-only effect, or effect the other way; inactive means no such curve, though single readings can be large or run the other way. Some of the results follow.
One label from this list, please: active, inactive

- Compound: "O=C(N=NC(=O)c1ccc2c(O)n(C3CCCCC3)c(O)c2c1)c1cccnc1"
  Assigned Label: "inactive"
- Compound: "CC(=O)c1cc2ccccc2oc1=O"
  Assigned Label: "inactive"

Dear all, I need the recorded test outcome for Cc1cc(NC(=O)CCCC(=O)OCC(F)(F)C(F)F)cc(C)c1C(=O)O , thank you. inactive

Subsequent entry: COc1ccccc1/C=N/NC(=O)CC(=O)Nc1ccc(Cl)c(Cl)c1 active

Subsequent entry: CNc1csc(C)c(C)c1=O active

Subsequent entry: COc1cccc(C2=CC(c3ccccc3)n3nnnc3N2)c1 (centres undefined) active

Subsequent entry: Cc1cccc(C)c1NC(=O)N1CCC(N2CCCCC2)CC1 inactive

Subsequent entry: CN(NC(=O)NN)c1ncc(C(F)(F)F)cc1Cl active

Subsequent entry: CCCCN1CCCC[C@H]1C(=O)Nc1c(C)cccc1C inactive

Subsequent entry: COc1c(F)c(F)c(C(=O)O)c(Nc2ccc(C)cc2)c1F inactive

Subsequent entry: COCCCNC(=O)C1CCN(S(=O)(=O)N(CC(C)C)CC(C)C)CC1 inactive

Subsequent entry: O=C(Nc1ccccc1-c1nc2ccccc2[nH]1)c1ccc(S(=O)(=O)N2CCCCC2)cc1 active

Subsequent entry: COc1ccccc1C(=O)NN1C(=O)C2C3C=CC(O3)C2C1=O (centres undefined) inactive

Subsequent entry: O=C(CCCC(=O)OCC(=O)c1ccc(Cl)cc1Cl)Nc1cc(C(F)(F)F)ccc1Cl active

Subsequent entry: CSc1nsc(SC)c1C(=O)Nc1ccc(C)cc1 active
